Source listed as patent US20240400638A1.

Experimental System: T1, human RXFP1 (human, UniProt Q9HBX9 1-757)
T1 sequence (looked up): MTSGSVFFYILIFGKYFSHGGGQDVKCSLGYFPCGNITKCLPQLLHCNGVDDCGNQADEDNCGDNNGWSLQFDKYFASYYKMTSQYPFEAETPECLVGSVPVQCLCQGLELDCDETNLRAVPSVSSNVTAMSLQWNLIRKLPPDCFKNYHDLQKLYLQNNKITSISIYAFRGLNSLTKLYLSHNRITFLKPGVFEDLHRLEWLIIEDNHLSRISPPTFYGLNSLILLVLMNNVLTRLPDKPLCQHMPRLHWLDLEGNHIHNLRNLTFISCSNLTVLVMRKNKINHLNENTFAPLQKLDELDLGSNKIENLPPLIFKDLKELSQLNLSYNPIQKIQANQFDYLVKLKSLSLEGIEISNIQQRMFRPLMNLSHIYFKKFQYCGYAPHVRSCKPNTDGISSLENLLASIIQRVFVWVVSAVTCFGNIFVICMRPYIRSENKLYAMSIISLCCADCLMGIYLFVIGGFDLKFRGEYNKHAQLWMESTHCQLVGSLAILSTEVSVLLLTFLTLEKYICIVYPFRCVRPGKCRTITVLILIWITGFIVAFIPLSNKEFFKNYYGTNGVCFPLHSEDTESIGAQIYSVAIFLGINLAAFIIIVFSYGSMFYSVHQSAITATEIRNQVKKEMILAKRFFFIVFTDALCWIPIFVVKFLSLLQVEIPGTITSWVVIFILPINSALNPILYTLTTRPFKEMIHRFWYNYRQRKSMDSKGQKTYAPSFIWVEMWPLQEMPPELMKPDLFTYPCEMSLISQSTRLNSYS
Protocol: cell-based or functional assay
Numbered stars: 1 amine (or outer) side, 2 acyl side, 3 side chain; on linkers, the order of the positions; unused ones are H or OH. Square brackets hold non-standard residues; d marks the D form. Side chains are listed from the residue outwards. * marks the point of attachment. TTDS = 4-[3-[2-[2-(3-aminopropoxy)ethoxy]ethoxy]propylamino]-4-oxo-butanoyl; γGlu = O=C(O)[C@H](CCC(=O)[*:2])N[*:1]; Stearoyl = CCCCCCCCCCCCCCCCCC(=O)*; Palmitoyl = CCCCCCCCCCCCCCCC(=O)*; αMeK = C[C@](N)(CCCCN)C(=O)O; Aib = CC(C)(N)C(=O)O
Assay Endpoint: EMax, OVCAR 5 cells (cAMP) (%)

- Binder: "Ac-LEGREKVRAK(Ac)I[Aib][Aib]EGK([TTDS-TTDS-γGlu-γGlu-γGlu-γGlu-Stearoyl])STWS[Aib]RKK(Ac)-NH2 [Relaxin peptide analogue of SEQ ID NO: 54]"
  Readout Unit: "%"
  EMax, OVCAR 5 cells (cAMP): 96
- Binder: "Ac-LEGRELVRAK(Ac)I[Aib][Aib]EGK([TTDS-TTDS-TTDS-γGlu-γGlu-γGlu-Palmitoyl])STWS[Aib]RRK(Ac)-NH2 [Relaxin peptide analogue of SEQ ID NO: 37]"
  Readout Unit: "%"
  EMax, OVCAR 5 cells (cAMP): 98
- Binder: "Ac-LEGREKVR[Aib]K(Ac)I[Aib][Aib]EGK([TTDS-TTDS-TTDS-γGlu-γGlu-γGlu-Palmitoyl])STWS[Aib]RAK(Ac)-NH2 [Relaxin peptide analogue of SEQ ID NO: 82]"
  Readout Unit: "%"
  EMax, OVCAR 5 cells (cAMP): 95
- Binder: "Ac-LEGREKVRAK(Ac)I[Aib][Aib]EGK([TTDS-TTDS-TTDS-TTDS-γGlu-γGlu-γGlu-Palmitoyl])STFS[αMeK]RAK(Ac)-NH2 [Relaxin peptide analogue of SEQ ID NO: 78]"
  Readout Unit: "%"
  EMax, OVCAR 5 cells (cAMP): 99
